Hello, the source for this data is ChEMBL document CHEMBL4627318, in case you need it.

target: Steryl-sulfatase (Homo sapiens); test: Irreversible inhibition of human steroid sulfatase expressed in HEK293 cells using [3H] E1S as substrate after 2 hrs by liquid scintillation counting method; type: cell-based
Sequence (P08842 whole entry): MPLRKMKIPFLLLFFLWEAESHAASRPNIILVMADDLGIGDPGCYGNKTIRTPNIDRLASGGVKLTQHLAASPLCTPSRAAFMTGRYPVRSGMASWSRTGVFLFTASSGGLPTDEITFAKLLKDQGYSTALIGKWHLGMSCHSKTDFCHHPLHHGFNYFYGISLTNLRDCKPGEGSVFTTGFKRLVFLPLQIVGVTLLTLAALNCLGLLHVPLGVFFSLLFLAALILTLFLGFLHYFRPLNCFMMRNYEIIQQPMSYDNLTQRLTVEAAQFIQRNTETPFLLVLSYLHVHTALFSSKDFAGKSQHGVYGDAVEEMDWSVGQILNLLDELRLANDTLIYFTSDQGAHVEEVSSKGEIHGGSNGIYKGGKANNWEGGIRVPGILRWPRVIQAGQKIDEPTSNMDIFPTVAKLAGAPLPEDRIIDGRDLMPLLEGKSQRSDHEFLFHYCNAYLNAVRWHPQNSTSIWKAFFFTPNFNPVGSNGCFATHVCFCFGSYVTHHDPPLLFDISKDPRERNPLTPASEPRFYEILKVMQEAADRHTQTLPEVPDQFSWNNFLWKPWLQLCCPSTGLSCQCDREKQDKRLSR
Recorded pIC50 values for a group of compounds are listed next.
Remember, pIC50 is on a log scale: it is -log10 of the molar concentration.

CC(C)(C)c1ccc(C[C@]2(O)CC[C@H]3[C@@H]4CCc5cc(OS(N)(=O)=O)ccc5[C@H]4CC[C@@]32C)cc1: 9.10

We now examine a further compound.
*Q* Note down pIC50 recorded for COc1cc2c(cc1OS(N)(=O)=O)CC[C@@H]1[C@@H]2CCC2(C)[C@H]1CC[C@@]2(O)Cc1ccc(C(C)(C)C)cc1 (some centres not stated)
*A* 10.40
